# protocol notes: differential killing of epithelial or mesenchymal cells, primary screen, imaging, PC-3E GFP, TEM4-18 mCherry, co-culture (AID 1345086);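 note: cells exposed to compound for 72 h before imaging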
# conditions used: imaging cell counts, measured here: mesenchymal TEM4-18 mCherry cell survival, at 1 µM
Decision: normalised cell number >= 1 yields 1, all other cases yield 0.

These recorded examples may help you get a feel for the data.
compound	class
NC[C@@H]1O[C@H](O[C@@H]2[C@@H](CO)OC(O[C@@H]3[C@@H](O)[C@H](N)C[C@H](N)[C@H]3O[C@H]3O[C@H](CO)[C@@H](O)[C@H](O)[C@H]3N)[C@@H]2O)[C@H](N)[C@@H](O)[C@@H]1O (some centres undefined)	1
O=c1c(O)c(-c2ccccc2)oc2cc(O)cc(O)c12	0
O=[N+]([O-])O[C@@H]1CO[C@H]2[C@@H]1OC[C@@H]2O	1
COc1cc(/C=C/C(=O)O)cc(OC)c1	0

Note: attention shifts to another entry.
Item CC(=O)Oc1c(C)c(C)c2c(c1C)CCC(C)(CCCC(C)CCCC(C)CCCC(C)C)O2 (centres undefined) with normalised cell number of 1 or above?
0

###

This section presents compounds with their documented cell count values.
# protocol notes: sensitizers of A549 cells to miR-34 induction, primary screen, imaging, A549 dox-inducible miR-34, nuclei and caspase counts (AID 1347080)
# conditions used: A549 miR-34 inducible, Hoechst nuclei count, 48 h; measured here: total cells with miR-34 induction; stronger effect = lower value
Answer with a number only.

Example results:
compound	cell count
C[C@H]1O[C@@H](O[C@H]2[C@@H](O)C[C@H](O[C@H]3[C@@H](O)C[C@H](O[C@H]4CC[C@]5(C)C6CC[C@]7(C)[C@@H](C8=CC(=O)OC8)CC[C@]7(O)C6CC[C@@H]5C4)O[C@@H]3C)O[C@@H]2C)C[C@H](O)[C@@H]1O (some centres not stated)	190
C[C@]12C=CC(=O)C=C1CCC1C3C[C@@H](O)[C@](O)(C(=O)CO)[C@@]3(C)C[C@H](O)[C@@]12F (some centres not stated)	6430
NC(=O)c1cc[n+](CC2=C(C(=O)O)N3C(=O)C(NC(=O)C(c4ccccc4)S(=O)(=O)[O-])C3SC2)cc1 (configuration not stated)	11600
CC(=CCC1=C(C)C(=O)c2ccccc2C1=O)CCCC(C)CCCC(C)CCCC(C)C (configuration not stated)	7560
Cc1cc(-c2ccc(N=Nc3ccc4c(S(=O)(=O)O)cc(S(=O)(=O)O)c(N)c4c3O)c(C)c2)ccc1N=Nc1ccc2c(S(=O)(=O)O)cc(S(=O)(=O)O)c(N)c2c1O	8810

Name the reported cell count value associated with the compound `COc1ccc(C[C@H](C)NC[C@@H](O)c2ccc(O)c(NC=O)c2)cc1`
8230

Name the reported cell count value associated with the compound `CC1(C)S[C@@H]2[C@H](NC(=O)[C@H](C(=O)O)c3cccs3)C(=O)N2[C@H]1C(=O)O`
9210

Name the reported cell count value associated with the compound `CO/N=C(/C(=O)N[C@@H]1C(=O)N2C(C(=O)OCSC(=O)c3ccco3)=CCS[C@H]12)c1csc(N)n1`
8470

Name the reported cell count value associated with the compound CCC(=O)OCC(=O)[C@@]1(OC(=O)CC)[C@@H](C)CC2C3CCC4=CC(=O)C=C[C@]4(C)C3(F)[C@@H](O)C[C@@]21C (some centres not stated)
7780

Name the reported cell count value associated with the compound C[C@]12C=CC(=O)C=C1CCC1C2[C@@H](O)C[C@@]2(C)C1CC[C@]2(O)C(=O)COC(=O)CCC(=O)O (some centres not stated)
7880

Name the reported cell count value associated with the compound C[C@]12C=CC(=O)C=C1CCC1C2C(=O)C[C@@]2(C)C1CC[C@]2(O)C(=O)CO (some centres not stated)
10500

Name the reported cell count value associated with the compound Cc1nnc(SCC2=C(C(=O)O)N3C(=O)C(NC(=O)Cn4cnnn4)C3SC2)s1 (configuration not stated)
10000

Name the reported cell count value associated with the compound `Nc1ccc2cn[nH]c2c1`
8130

Name the reported cell count value associated with the compound `O=c1[nH]nc(Sc2ncc([N+](=O)[O-])s2)n1-c1ccc2c(c1)OCCO2`
2070

Name the reported cell count value associated with the compound `CC(C)C[C@@H](NC(=O)OCC1c2ccccc2-c2ccccc21)C(=O)O`
8270

Name the reported cell count value associated with the compound `CN(C)[C@@H]1C(=O)C(C(=O)NCN2CCCC2)=C(O)[C@@]2(O)C(=O)C3=C(O)c4c(O)cccc4[C@@](C)(O)[C@H]3C[C@@H]12`
11700

Name the reported cell count value associated with the compound C[C@H](CCC(=O)O)[C@H]1CCC2C3C(=O)CC4CC(=O)CC[C@]4(C)C3CC(=O)[C@@]21C (some centres not stated)
10500

Name the reported cell count value associated with the compound `CC(C)OC(=O)CCC/C=C\C[C@@H]1[C@@H](CC[C@@H](O)CCc2ccccc2)[C@H](O)C[C@@H]1O`
10000

Name the reported cell count value associated with the compound `COc1ccc(-c2oc3cc(OC)ccc3c2C(=O)c2ccc(C#N)cc2)cc1`
7250

Name the reported cell count value associated with the compound COc1nccc(-c2c(-c3ccc(F)cc3)ncn2C2CCC(O)CC2)n1 (configuration not stated)
6910

Name the reported cell count value associated with the compound `CCC(=O)NS(=O)(=O)c1ccc(-c2c(-c3ccccc3)noc2C)cc1`
9000

Name the reported cell count value associated with the compound C[C@H]1O[C@H](O[C@H]2[C@H](O)[C@@H](O)[C@@H](O[C@H]3[C@H](O)[C@@H](O)C(O)O[C@@H]3CO)O[C@@H]2CO)[C@H](O)[C@@H](O)[C@@H]1N[C@H]1C=C(CO)[C@@H](O)[C@H](O)[C@H]1O (some centres not stated)
10500

# credit: PubChem BioAssay
